Provide the recorded α9 Imax for the entries that follow.
Target: UniProtKB Q9UGM1
Details: Table 3; reverse amide GATs
Numbers only.

Solved entries:
[[record]]
chemical_smiles = "CC[N+]1(C)CCN(c2ccc(NC(=O)c3cccc(Br)n3)cc2)CC1"
measured = 0.936

[[record]]
chemical_smiles = "CC[N+]1(C)CCN(c2ccc(NC(=O)c3cccc(F)n3)cc2)CC1"
measured = 1.2

[[record]]
chemical_smiles = "CC[N+]1(C)CCN(c2ccc(NC(=O)c3ncc(C(F)(F)F)cc3Cl)cc2)CC1"
measured = 1.23


Dear reader, for each entry below, please note its α9 Imax.
1. CC[N+]1(C)CCN(c2ccc(NC(=O)c3ccc(C)cn3)cc2)CC1
2. CC[N+]1(CC)CCN(c2ccc(NC(=O)c3cccc(C)n3)cc2)CC1.[I-]
3. CC[N+]1(C)CCN(c2ccc(NC(=O)c3ccc4ccccc4n3)cc2)CC1
4. CC[N+]1(C)CCN(c2ccc(NC(=O)c3cccc(Cl)n3)cc2)CC1

Ans:
1.00
1.01
1.008
1.00

* * *

Provide the recorded pEC50 for the entries that follow.
Target: human α7 nAChR (Homo sapiens)
Conditions: read-out: α7 EC50; Table 2; unit inferred
Answers are plain numbers, as −log10 of the molar value.

[[record]]
molecule = "Cc1cccc(NC(=O)c2ccc(N3CC[N+](C)(C)[C@@H](C)C3)cc2)n1 [Compound IV-e]"
measured = 5.46

[[record]]
molecule = "CC[N+]1(C)CCN(c2ccc(C(=O)Nc3cccc(C)n3)cc2)C[C@@H]1C (stereo partly shown) [IV-b]"
measured = 5.15

[[record]]
molecule = "Cc1cccc(NC(=O)c2ccc(N3CC[N+](C)(C)[C@H](C)C3)cc2)n1 [IV-f]"
measured = 5.51


Note: attention shifts to another entry.
Test item CC[N+]1(C)CCN(c2ccc(C(=O)Nc3cccc(C)n3)cc2)C[C@H]1C (stereo partly shown) [Compound IV-a] ; human α7 nAChR (Homo sapiens); reported pEC50 was 5.15

* * *

Target: α9 nAChR (Homo sapiens, UniProt Q9UGM1)
Sequence (Q9UGM1 26-479 limits assumed): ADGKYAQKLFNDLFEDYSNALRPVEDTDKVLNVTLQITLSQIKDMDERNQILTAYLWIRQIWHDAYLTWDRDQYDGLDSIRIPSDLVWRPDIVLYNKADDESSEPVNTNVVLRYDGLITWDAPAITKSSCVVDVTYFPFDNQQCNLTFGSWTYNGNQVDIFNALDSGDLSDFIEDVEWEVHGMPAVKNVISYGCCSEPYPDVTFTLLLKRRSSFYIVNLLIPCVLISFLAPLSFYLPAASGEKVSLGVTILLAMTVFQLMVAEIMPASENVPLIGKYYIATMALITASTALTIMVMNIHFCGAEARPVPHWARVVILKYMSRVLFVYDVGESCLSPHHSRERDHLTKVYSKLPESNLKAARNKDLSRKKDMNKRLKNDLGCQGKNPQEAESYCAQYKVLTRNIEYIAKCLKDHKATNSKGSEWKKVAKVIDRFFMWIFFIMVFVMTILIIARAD
Conditions: read-out: α9 EC50; Table 4; unit inferred
Measured metric: pEC50
Give bare numbers, as −log10 of the molar value.

Solved entries:
[[record]]
compound = "Cc1cccc(NC(=O)c2ccc(N3CC[N+](C)(C)[C@@H](C)C3)cc2)n1"
measured = 6.10

[[record]]
compound = "CC[N+]1(C)CCN(c2ccc(C(=O)Nc3cccc(C)n3)cc2)C[C@H]1C (stereo partly shown)"
measured = 5.71

[[record]]
compound = "CC[N+]1(C)CCN(c2ccc(C(=O)Nc3cccc(C)n3)cc2)C[C@@H]1C (stereo partly shown)"
measured = 5.68


Note: attention shifts to another entry.
Note to self: pEC50 recorded for CC[N+]1(C)CCN(c2ccc(C(=O)Nc3cccc(C)n3)cc2)CC1 [Compound 3f, reference compound] was 6.29

* * *

Provide the recorded α7 Imax for the entries that follow.
Biological target: human α7 nAChR (Homo sapiens, UniProt P36544)
Sequence (P36544 23-502): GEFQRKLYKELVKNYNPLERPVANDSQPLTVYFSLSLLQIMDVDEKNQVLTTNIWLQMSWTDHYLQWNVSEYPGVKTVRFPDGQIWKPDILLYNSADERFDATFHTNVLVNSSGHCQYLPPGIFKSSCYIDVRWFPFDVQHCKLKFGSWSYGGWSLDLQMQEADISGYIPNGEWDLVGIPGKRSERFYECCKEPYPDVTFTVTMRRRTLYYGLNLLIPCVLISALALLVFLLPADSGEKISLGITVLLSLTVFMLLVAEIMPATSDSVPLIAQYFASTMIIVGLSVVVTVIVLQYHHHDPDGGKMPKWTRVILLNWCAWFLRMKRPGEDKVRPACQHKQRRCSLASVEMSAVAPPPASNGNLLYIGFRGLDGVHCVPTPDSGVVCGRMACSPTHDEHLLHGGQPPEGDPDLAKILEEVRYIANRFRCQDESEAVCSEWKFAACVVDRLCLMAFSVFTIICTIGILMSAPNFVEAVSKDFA
Conditions: Table 2; chiral compounds
One number for each entry.

Dear reader, for each entry below, please note its α7 Imax.
1. Cc1cccc(NC(=O)c2ccc(N3CC[N+](C)(C)[C@H](C)C3)cc2)n1 [IV-f]
2. CC[N+]1(C)CCN(c2ccc(C(=O)Nc3cccc(C)n3)cc2)C[C@@H]1C (stereo partly shown) [IV-b]
3. CC[N+]1(C)CCN(c2ccc(C(=O)Nc3cccc(C)n3)cc2)C[C@H]1C (stereo partly shown) [Compound IV-a]
4. Cc1cccc(NC(=O)c2ccc(N3CC[N+](C)(C)[C@@H](C)C3)cc2)n1 [Compound IV-e]

Ans:
[0.426, 0.238, 0.548, 0.397]
